Cited source: patent US20230263822A1

Details: mouse, in vivo, sc, 50 mg/kg
Readout Name: BUN (mg/dL)
State just the number; it will be interpreted in mg/dL.

Reported BUN of ISIS 416855: MOE gapmer, nucleobases 1275 to 1318 of SEQ ID NO: 1 (Table 8) (antisense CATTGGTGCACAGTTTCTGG; MOE gapmer, wing and gap sizes not given here) : 23

* * *

Assay: Hematology assays in cynomolgus monkeys (Example 45)
Assay type: in vivo
Settings: day 71
Readout Name: lymphocytes (%)
Number only, in %; omit the unit.

Previously resolved entries follow.
// ISIS 417002: MOE gapmer, nucleobases 1275 to 1318 of SEQ ID NO: 1 (Table 8) (antisense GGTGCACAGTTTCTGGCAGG; MOE gapmer, wing and gap sizes not given here) : lymphocytes value = 59

The recorded lymphocytes for ISIS 416858: MOE gapmer, nucleobases 1275 to 1318 of SEQ ID NO: 1 (Table 8) (antisense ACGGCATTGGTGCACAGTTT; MOE gapmer, wing and gap sizes not given here) is 66

The substance identified as ISIS 416864: MOE gapmer, nucleobases 1275 to 1318 of SEQ ID NO: 1 (Table 8) (antisense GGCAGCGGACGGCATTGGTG; MOE gapmer, wing and gap sizes not given here) registered its lymphocytes at 52

Sample ISIS 416838: MOE gapmer, nucleobases 1018 to 1042 of SEQ ID NO: 1 (Table 6) (antisense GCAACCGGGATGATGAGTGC; MOE gapmer, wing and gap sizes not given here) ; lymphocytes observed: 65

// moving on: another record for lymphocytes
Input ISIS 416850: MOE gapmer, nucleobases 1275 to 1318 of SEQ ID NO: 1 (Table 8) (antisense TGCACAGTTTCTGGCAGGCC; MOE gapmer, wing and gap sizes not given here) . Output lymphocytes: 61
